Test system: P. aeruginosa ATCC27853
Format: cell-based
Conditions: ATCC27853, 24 h
metricName: G− MIC P. aeruginosa ATCC27853 (µM)

In [3]: df
Out[3]:
                                  substance  val
0  Ac-KWKSFLKTFKSALKTVLHTALKAISS-NH2 [Peptide V13L]    8
1  Ac-KWKSFLKTFKSASKTVLHTALKAISS-NH2 [Peptide V13S]    8
2  Ac-KWKSFLKTFKSAEKTVLHTALKAISS-NH2 [Peptide V13E]  125
3  Ac-KWKSFAKTFKSAKKTVLHTALKAISS-NH2 [Peptide L6A]  125
4  Ac-KWKSFLKTFKSAAKTVLHTALKAISS-NH2 [Peptide V13A]    8

###

Test system: A549 cells
Assay type: cell-based, human
Settings: 24 h
metricName: IC50 (µM)

In [3]: df
Out[3]:
                                  substance   val
0  Ac-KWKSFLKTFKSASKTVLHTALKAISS-NH2 [Peptide V13S]  12.1
1  Ac-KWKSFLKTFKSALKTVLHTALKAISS-NH2 [Peptide V13L]   2.8
2  Ac-KWKSFAKTFKSAKKTVLHTALKAISS-NH2 [Peptide L6A]  92.4
3  Ac-KWKSFLKTFKSAAKTVLHTALKAISS-NH2 [Peptide V13A]  6.83
4  Ac-KWKSFLKTFKSAEKTVLHTALKAISS-NH2 [Peptide V13E]   110

###

Experiment: Circular dichroism (CD) analysis
Format: physicochemical
Details: CD, 25 °C, benign buffer pH 7.0, 100 mM KCl, 50 mM KH2PO4/K2HPO4
This listing pairs substances with measured [θ]222 Benign.
metricName: [θ]222 Benign (degree·cm^2·dmol^−1)

>>> df
                                  substance     metricname        val
0  Ac-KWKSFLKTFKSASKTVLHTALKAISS-NH2 [Peptide V13S]  [θ]222 Benign   −4400.44
1  Ac-KWKSFAKTFKSAKKTVLHTALKAISS-NH2 [Peptide L6A]  [θ]222 Benign   −3836.18
2  Ac-KWKSFAKTFKSAKKTVAHTALKAISS-NH2 [L6A/L17A]  [θ]222 Benign   −3589.82
3  Ac-KWKSFLKTFKSAEKTVLHTALKAISS-NH2 [Peptide V13E]  [θ]222 Benign   −3876.86
4  Ac-KWKSFLKTFKSAAKTVLHTALKAISS-NH2 [Peptide V13A]  [θ]222 Benign   −6524.79
5  Ac-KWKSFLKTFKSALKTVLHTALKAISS-NH2 [Peptide V13L]  [θ]222 Benign  −10502.62

###

Test system: PC/Chol (8:1 w/w) LUVs
Test: Tryptophan fluorescence with LUVs
Assay type: binding
Settings: PC/Chol (8:1 w/w) LUVs versus HEPES buffer, 25 °C
Respond with condition met for PC/Chol Blue shift values of 1 nm and above, condition not met for values below.

>>> df
                                  substance     classification
0  Ac-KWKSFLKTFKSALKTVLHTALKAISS-NH2 [Peptide V13L]      condition met
1  Ac-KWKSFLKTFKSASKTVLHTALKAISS-NH2 [Peptide V13S]      condition met
2  Ac-KWKSFLKTFKSAAKTVLHTALKAISS-NH2 [Peptide V13A]      condition met
3  Ac-KWKSFAKTFKSAKKTVAHTALKAISS-NH2 [L6A/L17A]  condition not met

###

Experiment: RP-HPLC retention time (peptide hydrophobicity)
Assay type: physicochemical
Conditions: used as measure of peptide hydrophobicity
This listing pairs substances with measured tR (RP-HPLC retention time).
metricName: tR (RP-HPLC retention time) (min)

>>> print(df.to_string())
                                  substance     val
0  Ac-KWKSFLKTFKSAAKTVLHTALKAISS-NH2 [Peptide V13A]  47.337
1  Ac-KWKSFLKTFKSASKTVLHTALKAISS-NH2 [Peptide V13S]  43.038
2  Ac-KWKSFLKTFKSAEKTVLHTALKAISS-NH2 [Peptide V13E]  44.290
3  Ac-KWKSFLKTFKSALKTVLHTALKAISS-NH2 [Peptide V13L]  53.177
4  Ac-KWKSFAKTFKSAKKTVLHTALKAISS-NH2 [Peptide L6A]  36.053
5  Ac-KWKSFAKTFKSAKKTVAHTALKAISS-NH2 [L6A/L17A]  32.210
